# target_entity: Recombinant TDO (Homo sapiens, UniProt P48775)
# Construct: His tag (C); made in house; host or cells: E. coli
# Sequence (P48775 whole entry): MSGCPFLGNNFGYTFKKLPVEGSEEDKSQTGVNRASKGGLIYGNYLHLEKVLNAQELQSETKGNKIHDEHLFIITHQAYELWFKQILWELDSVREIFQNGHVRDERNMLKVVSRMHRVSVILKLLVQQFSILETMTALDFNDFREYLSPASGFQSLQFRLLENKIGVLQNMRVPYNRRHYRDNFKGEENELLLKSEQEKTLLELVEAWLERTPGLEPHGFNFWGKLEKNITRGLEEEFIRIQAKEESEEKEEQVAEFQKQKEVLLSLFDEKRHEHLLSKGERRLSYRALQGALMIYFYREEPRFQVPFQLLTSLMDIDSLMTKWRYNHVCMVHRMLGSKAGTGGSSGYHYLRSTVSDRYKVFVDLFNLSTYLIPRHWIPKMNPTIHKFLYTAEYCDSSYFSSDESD
# method_description: TDO enzymatic assay
# Format: biochemical
# conditions: Table 2, 8-substituted imidazo[1,5-a]pyridines; 100 nM TDO, 0.5 mM L-tryptophan; read-out: Enzyme IC50 (nM) TDO
Criterion: IC50 strictly less than 4000 nM. Met: criterion met. Not met: criterion not met.

INSERT INTO assay_data (molecule, group) VALUES
  ('OC(c1cccn2cncc12)C1CCCCC1 (stereo not shown)', 'criterion met'),
  ('CC(C)c1ccn2cncc2c1C(O)C1CCCCC1 (stereo not shown)', 'criterion met'),
  ('Cc1ccn2cncc2c1C(O)C1CCCCC1 (single isomer, unassigned) [Example B102b]', 'criterion not met'),
  ('OC(c1c(I)ccn2cncc12)C1CCCCC1 (stereo not shown)', 'criterion not met'),
  ('OC(c1c(C2CC2)ccn2cncc12)C1CCCC1 (stereo not shown)', 'criterion not met'),
  ('CC(C)c1ccn2cncc2c1C(O)CC1CCCCC1 (stereo not shown)', 'criterion met'),
  ('OC(c1cccn2cncc12)C1CCCC1 (stereo not shown)', 'criterion met'),
  ('OC(c1c(C2CC2)ccn2cncc12)C1CCCCC1 (stereo not shown) [Example B107]', 'criterion met'),
  ('Cc1ccn2cncc2c1C(O)C1CCCCC1 (single isomer, unassigned) [Example B102a]', 'criterion met');
